The measurements presented in this section are drawn from PubChem BioAssay (NCATS).

test system: MCC-26; assay: qHTS assay to identify novel small-molecules to repurpose for Merkel cell carcinoma treatment (AID 1296009); conditions: MCC and control cell lines, CellTiter-Glo viability, 72 h; series mostly up to 46 µM; also: nearly all actives have a fitted effect of over 60% in size
Results filed as inconclusive are left out. Activity calls are given as the source filed them. Calls follow the shape of the dose curve; as a rule, active = well fitted inhibition curve with a large enough effect; inconclusive = small, poorly fitted or top-dose-only effect; inactive = flat fitted curve, though single readings scatter.
Possible outcomes: active, inactive

| COMPOUND | QUALITATIVE LABEL |
| --- | --- |
| CCN(C(C)=O)c1cccc(-c2ccnc3c(C#N)cnn23)c1 | inactive |
| CCC(=O)C(CC(C)N(C)C)(c1ccccc1)c1ccccc1 (configuration not stated) | inactive |
| O=C(O)C(=O)c1cn(Cc2ccccc2)c2ccc(-c3ccc(OC(F)(F)F)cc3)cc12 | inactive |
| CCOC(=O)C1(c2ccccc2)CCN(CCC(C#N)(c2ccccc2)c2ccccc2)CC1 | inactive |
| Cc1ccc2c(c1)C1CN(C)CCC1N2 (configuration not stated) | inactive |
| FC(F)(F)c1cccc(C2=CCN(CCc3ccc4ccccc4c3)CC2)c1 | inactive |
| CC1NCCOC1c1ccccc1 (configuration not stated) | inactive |
| CC(C)CC(N(C)C)C1(c2ccc(Cl)cc2)CCC1 (configuration not stated) | inactive |
| CC(C)=CC1C(C(=O)OCc2cccc(Oc3ccccc3)c2)C1(C)C (configuration not stated) | inactive |
| C=CCN1CC[C@]23c4c5ccc(O)c4O[C@H]2C(=O)CC[C@@]3(O)[C@H]1C5 | inactive |
| Clc1ccc(CCC(Cn2ccnc2)Sc2c(Cl)cccc2Cl)cc1 (configuration not stated) | inactive |
| Cc1ncc(CNC(=O)N(CCCl)N=O)c(N)n1 | inactive |
| O=c1[nH]c2ccccc2n1CCCN1CCC(n2c(=O)[nH]c3cc(Cl)ccc32)CC1 | inactive |
| N[C@@H]1C[C@H]1c1ccccc1 | inactive |
| CN(C)[C@@H]1C(=O)C(C(N)=O)=C(O)[C@@]2(O)C(=O)C3=C(O)c4c(O)cccc4[C@@](C)(O)[C@H]3C[C@@H]12 | inactive |
| CNCC(O)c1ccc(O)cc1 (configuration not stated) | inactive |
| C[C@]12C/C(=C/O)C(=O)C[C@@H]1CC[C@@H]1[C@@H]2CC[C@@]2(C)[C@H]1CC[C@]2(C)O | inactive |
| CC(CCc1ccccc1)NC(C)C(O)c1ccc(O)cc1 (configuration not stated) | inactive |
| CC(C)NCC(O)c1ccccc1Cl (configuration not stated) | inactive |
| C[C@@H]1O[C@@H](O[C@H]2C[C@@H](O)[C@]3(CO)[C@H]4[C@H](O)C[C@]5(C)[C@@H](C6=CC(=O)OC6)CC[C@]5(O)[C@@H]4CC[C@]3(O)C2)[C@H](O)[C@H](O)[C@H]1O | active |
| Cn1cc(C2=C(c3cn(C4CCN(Cc5ccccn5)CC4)c4ccccc34)C(=O)NC2=O)c2ccccc21 | inactive |
| Oc1ccccc1-c1ccccc1 | inactive |
| CC(C)(C)NCC(O)c1cc(Cl)c(N)c(Cl)c1 (configuration not stated) | inactive |
| C[C@]12CCC(=O)C(O)=C1CC[C@@H]1[C@@H]2CC[C@]2(C)C(=O)CC[C@@H]12 | inactive |
| CC(C)(C)CC(C)(C)c1ccc(O)cc1 | inactive |
| Nc1ccncc1 | inactive |
| CCCN1CCC[C@@H]2Cc3[nH]ncc3C[C@H]21 | inactive |
| CCN(CC)CCN1C(=O)CN=C(c2ccccc2F)c2cc(Cl)ccc21 | inactive |
| NP(N)(=O)NC(=O)c1ccc(F)cc1 | inactive |
| CC[C@@H](CO)NC(=O)[C@@H]1C=C2c3cccc4c3c(cn4C)C[C@H]2N(C)C1 | inactive |
| CC[C@@H](CO)NC(=O)[C@@H]1C=C2c3cccc4[nH]cc(c34)C[C@H]2N(C)C1 | inactive |
| C=C1CC[C@@]2(O)[C@H]3Cc4ccc(O)c5c4[C@@]2(CCN3CC2CC2)[C@H]1O5 | inactive |
| Cc1ccc(-c2nc3ccc(C)cn3c2CC(=O)N(C)C)cc1 | inactive |
| c1ccc2c(c1)Nc1ccccc1S2 | inactive |
| CN(C)CCN(C)CCc1ccc(Cl)c(Cl)c1 | inactive |
| CC1OC(C)OC(C)O1 (configuration not stated) | inactive |
| CC(=O)Nc1cc([As](=O)(O)O)ccc1O | inactive |
| COC1(CS(=O)c2ccccc2)CCN(CCc2c[nH]c3ccc(F)cc23)CC1 (configuration not stated) | inactive |
| CC(=O)[C@H]1CC[C@H]2[C@@H]3CC[C@H]4C[C@](C)(O)CC[C@]4(C)[C@H]3CC[C@]12C | inactive |
| CNC(=O)c1ccc(N2C(=S)N(c3ccc(C#N)c(C(F)(F)F)c3)C(=O)C23CCC3)cc1F | inactive |
| Fc1ccc(C(OCCN2CCN(CCCc3ccccc3)CC2)c2ccc(F)cc2)cc1 | inactive |
| NCC(O)c1ccc(O)cc1 (configuration not stated) | inactive |
